Below, each entry is listed alongside its reported inhibition at 1 µM.
Biological target: Recombinant ROCK2 (amino acids 1-552) (Homo sapiens (Human))
Sequence (O75116 1-552): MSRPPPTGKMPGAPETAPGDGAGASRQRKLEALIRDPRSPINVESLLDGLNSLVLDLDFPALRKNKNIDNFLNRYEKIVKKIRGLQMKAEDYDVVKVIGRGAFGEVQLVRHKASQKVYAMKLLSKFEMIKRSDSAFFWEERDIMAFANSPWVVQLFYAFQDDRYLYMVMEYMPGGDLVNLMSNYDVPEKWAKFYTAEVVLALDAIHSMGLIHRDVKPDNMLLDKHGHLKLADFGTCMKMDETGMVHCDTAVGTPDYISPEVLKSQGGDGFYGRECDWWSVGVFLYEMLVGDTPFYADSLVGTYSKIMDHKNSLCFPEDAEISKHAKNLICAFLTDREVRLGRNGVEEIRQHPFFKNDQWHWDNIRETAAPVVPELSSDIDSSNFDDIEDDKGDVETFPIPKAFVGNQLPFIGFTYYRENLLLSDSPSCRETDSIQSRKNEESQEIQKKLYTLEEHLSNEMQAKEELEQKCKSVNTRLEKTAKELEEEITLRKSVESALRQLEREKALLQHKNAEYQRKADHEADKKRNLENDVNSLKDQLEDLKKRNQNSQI
Assay: Z′-Lyte kinase assay, ROCK2
Format: biochemical
Conditions: 1 μM compound; read-out: ROCK2 % inh. @ [conc]

>  <Molecule>
Cc1cc(Nc2ccc3[nH]ncc3c2)nc(N2CCNC3(CC3)C2)n1 [Example 212]

>  <inhibition at 1 µM / %>
91.9

$$$$
>  <Molecule>
CC1CN(c2ncc(F)c(Nc3ccc4[nH]ncc4c3)n2)C(C)CN1 (centres unmarked) [Example 155]

>  <inhibition at 1 µM / %>
82.1

$$$$
>  <Molecule>
CC(C)C1CN(c2ncc(Cl)c(Nc3ccc4[nH]ncc4c3)n2)CCN1 (centres unmarked) [Example 185]

>  <inhibition at 1 µM / %>
19.7

$$$$
>  <Molecule>
CCC1CN(c2ncc(F)c(Nc3ccc4[nH]ncc4c3)n2)CCCN1 (centres unmarked) [Example 148]

>  <inhibition at 1 µM / %>
55.1

$$$$
>  <Molecule>
CCC1CN(c2nc(C)c(C)c(Nc3ccc4[nH]ncc4c3)n2)CCCN1 (centres unmarked) [Example 26]

>  <inhibition at 1 µM / %>
33.5

$$$$
